Values from PubChem BioAssay (NCI)

Catalogue of TGI readings, one per entry.
Tested on: HS 578T breast
Experiment: NCI tumour cell line growth inhibition, 48 h

compound	system under test	TGI
O=C(CCN1CCCCC1)N1CCc2c([nH]c3ccccc23)C1c1cccnc1 (centres undefined)	HS 578T breast	> 100 µM
COc1cccc(C2SC(N)=Nc3c2c(C)nn3C(=O)Cc2ccccc2)c1 (centres undefined)	HS 578T breast	> 100 µM
COC(=O)/C=C1/OC(c2ccccc2)=C(C)C1=O	HS 578T breast	83.9 µM
COc1ccc(OC)c2c1C=CC(Br)=CC2	HS 578T breast	> 1 µM

====

Catalogue of TGI readings, one per entry.
System: SF-268 CNS
Assay: NCI tumour cell line growth inhibition, 48 h

molecule	TGI
CCCCCCCCCC[C@H](O)[C@H](O)CC[C@@H](O)[C@H]1CC[C@@H]([C@H]2CC[C@H](CCCCCCC[C@@H](O)CC3=C[C@H](C)OC3=O)O2)O1	> 100 µM
COc1cc(C2c3cc4c(cc3C(OC(=O)C[n+]3ccccc3)C3COC(=O)C23)OCO4)cc(OC)c1OC (stereo not drawn)	> 100 µM
CN(/N=C\c1ccnc2ccccc12)c1ccc([N+](=O)[O-])cc1	> 100 µM
Cc1cccc2sc(-c3ccc(O)cc3)nc12	31.9 µM
CC(=O)NCC1OC2COC(c3ccccc3)OC2C(NC(=O)c2ccccc2)C1OC(=O)c1ccccc1 (stereo not drawn)	> 100 µM
Nc1ncnc2c1ncn2C1CCC(CP(=O)(O)O)C1 (stereo not drawn)	> 100 µM
O=C(Nc1ccc(Cl)c(Cl)c1)C(=O)C(C(=O)c1ccccc1-c1ccccc1)C1OC(=O)c2ccccc21 (stereo not drawn)	72.2 µM
CC(=O)O[C@H]1C(=O)[C@@]2(C)[C@H]([C@H](OC(=O)c3ccccc3)[C@]3(O)C[C@H](OC(=O)[C@H](O)[C@@H](NC(=O)c4ccco4)c4ccccc4)C(C)=C1C3(C)C)[C@]1(OC(C)=O)CO[C@@H]1C[C@@H]2O	> 12.5 µM
CNS(=O)(=O)NNS(=O)(=O)c1ccc(OC)cc1	> 100 µM
CC(C)COc1nc2c(c(=O)n(C)c(=O)n2C)n1C	> 100 µM
O=C1Nc2nccnc2C(=O)N2CCC[C@@H]12	> 100 µM
Cc1cc(Nc2cc(N3CCN(C)CC3)nc(/C=C/c3ccccc3)n2)n[nH]1	> 4.08 µM
CO[C@H]1CC(O[C@@H]2/C(C)=C/C[C@@H]3C[C@@H](C[C@]4(CC[C@H](C)[C@@H](C5CCCCC5)O4)O3)OC(=O)[C@@H]3C=C(C)/C(=N/O)[C@H]4OC/C(=C\C=C\[C@@H]2C)[C@]43O)O[C@@H](C)C1O (stereo partly drawn)	2.45 µM
